- Tested System: T1, human CCK-B receptor (human, UniProt P32239 1-447)
- T1 sequence (looked up): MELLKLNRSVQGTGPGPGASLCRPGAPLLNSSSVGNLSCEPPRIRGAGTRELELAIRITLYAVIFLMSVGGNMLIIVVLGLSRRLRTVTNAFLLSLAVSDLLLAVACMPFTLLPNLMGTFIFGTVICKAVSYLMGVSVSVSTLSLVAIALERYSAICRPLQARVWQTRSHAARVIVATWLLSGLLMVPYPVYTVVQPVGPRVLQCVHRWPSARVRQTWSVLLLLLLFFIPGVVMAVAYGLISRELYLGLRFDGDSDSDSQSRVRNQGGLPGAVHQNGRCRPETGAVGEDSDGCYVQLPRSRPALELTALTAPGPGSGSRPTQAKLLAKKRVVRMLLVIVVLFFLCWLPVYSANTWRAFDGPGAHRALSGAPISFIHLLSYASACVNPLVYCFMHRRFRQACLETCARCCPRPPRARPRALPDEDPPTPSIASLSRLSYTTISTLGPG
- Procedure Details: cell-based or functional assay
Square brackets hold non-standard residues; d marks the D form. Ends that are not written are not given here. Orn = NCCC[C@H](N)C(=O)O
Below, each of the binders is paired with its reported hCCK-B R EC50 (p-ERK) value.
The reply should be a number in nM, with the unit left off.

HGEGTFTSDLSKYLEEEAVRLFIEFLR[Peg3]YGWLDF-NH2 [[Arg27,Leu14,Phe25,Tyr13]Exendin-4(1-27)-Peg3-[Leu4]Gastrin6]
18

Prompt: Look up hCCK-B R EC50 (p-ERK) for this binder: HGEGTFTSELSKYLEEEAVRLFIEFLKYGWLDF-NH2 [[Glu9,Leu14,Phe25,Tyr13]Exendin-4(1-27)-[Leu4]Gastrin6]
Response: 30

Prompt: Could you share which hCCK-B R EC50 (p-ERK) value was measured for HGEGTFTSELSKYLEEEAVRLFIEFLK[Orn][Peg3]WLDF-NH2 [[Glu9,Leu14,Phe25,Tyr13]Exendin-4(1-27)-Orn-Peg3-[Leu2]Gastrin4] ?
Response: 10

Prompt: Give the measured hCCK-B R EC50 (p-ERK) of HGEGTFTSDLSRYLEEEAVKLFIEFLR[Peg3]YGWLDF-NH2 [[Arg12,27,Leu14,Lys20,Phe25,Tyr13]Exendin-4(1-27)-Peg3-[Leu4]Gastrin6] .
Response: 26

Source of measurements: patent US20130143793A1
